Attribution: PubChem BioAssay (NCI)

tested on: SW-620 colon; assay: NCI-60 one-dose screen, 48 h; details: 10 µM
Compounds without any hit were thinned out: in the full panel of roughly 83,000, 20% have a hit. Calls of active or inactive are those of the source. How the source made its calls: active means growth percent below 10; inactive means the rest.
Outcomes: yes (1) for active, no (0) for inactive

| Compound | Category |
| --- | --- |
| CO/N=C(/C(=O)NC1C(=O)N2C(C(=O)O)=C(COC(N)=O)CSC12)c1ccco1 (centres undefined) | no (0) |
| O=S(=O)(NCCNc1nccc(-c2c(-c3ccc(F)cc3)nc3sccn23)n1)c1ccc2ccccc2c1 | no (0) |
| COc1cccc(C2C3=C(COC3=O)N(CCO)c3cc(OC)ccc32)c1 (centres undefined) | no (0) |
| CC(=O)c1cc(Br)ccc1O | no (0) |
| O=c1cc(-c2ccccc2)[nH]n1-c1nc2ccccc2[nH]1 | no (0) |
| O=C(/C=C/c1cc2ccccc2[nH]c1=O)c1ccc2c(c1)OCO2 | no (0) |
| CCOC(=O)C(CSC(c1ccccc1)(c1ccccc1)c1ccccc1)NC(=O)C(CSC(c1ccccc1)(c1ccccc1)c1ccccc1)NC(c1ccccc1)(c1ccccc1)c1ccccc1 (centres undefined) | no (0) |
| COc1ccc(-c2cc(-c3cccc(NS(C)(=O)=O)c3)nc(N)c2C#N)cc1 | no (0) |
| CN1CC[C@@H](c2c(O)cc(O)c3c(=O)cc(-c4ccccc4Cl)oc23)[C@@H](O)C1 | yes (1) |
